Recorded measurements of hIZCD40L-driven Human B Cell Proliferation EC50, one per entry
- System Name: T1, human isoleucine zipper-CD40L (IZ-hCD40L) (human, UniProt P29965 113-261)
- T1 sequence: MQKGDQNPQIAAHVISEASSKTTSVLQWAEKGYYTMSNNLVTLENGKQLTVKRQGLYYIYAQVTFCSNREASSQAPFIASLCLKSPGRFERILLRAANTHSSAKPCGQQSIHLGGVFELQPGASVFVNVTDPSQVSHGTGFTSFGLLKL
- Assay Details: cell-based or functional assay
Measure: hIZCD40L-driven Human B Cell Proliferation EC50 (µM)

{"columns": ["Binder", "Value Operator", "Test Result"],
 "data": [
  ["BMS2h-492 (other) VL: DIQMTQSPSSLSASVGDRVTITCRASQAIELNLEWYQQKPGKAPKLLIYDASMLQSGVPSRFSGSGSGTDFTLTISSLQPEDFATYYCQQYDVYPPTFGQGTKVEIKR", ">", 7],
  ["BMS2h-781 (other) VH: EVQLLESGGGLVQPGGSLRLSCAASGFTFTDYTMYWVRQAPGKGLEWVSKISPSGRSTYYADSVKGRFTISRDNSKNTLYLQMNSLRAEDTAVYYCAKDPFGFDYWGQGTLVTVSS", ">", 7],
  ["BMS2h-706 (other) VH: EVQLLESGGGLVQPGGSLRLSCAASGFTFGSYKMLWVRQAPGKGLEWVSSITNSGTETYYADSVKGRFTISRDNSKNTLYLQMNSLRAEDTAVYYCAKSMYPDLEIVHFDYWGQGTLVTVSS", ">", 7],
  ["BMS2h-437 (other) VL: DIQMTQSPSSLSASVGDRVTITCRASTPIGTMLDWYQQKPGKAPKLLIGHSSWLQSGVPSRFSGSGSGTDFTLTISSLQPEDFATYYCGQHVRPPATFGQGTKVEIKR", "=", 5.7],
  ["BMS2h-758-1 (other) VH: EVQLLESGGGLVQPGGSLRLSCAASGFTFGDYGMNWVRQAPGKGLEWVSHISSNGRFTYYADSVKGRFTISRDNSKNMLYLRMNSLRAEDTAVYYCAETSGYYEYWGQGTLVTVSS", ">", 7],
  ["BMS2h-572-15 (other) VH: EVRLLESGGGLVQPGGSLRLSCAASGFNFNWQLMGWIRQAPGKGLEWVSGIEGPGDVTYYADSVKGRFTISRDNSKNTLYLQMNSLRAEDTAVYYCAKVGKESNSDYRGQGTLVTVSS", "=", 0.168],
  ["BMS2h-116-1320 (other) VL: DIQMTQSPSSLSAYVGDRVTITCRASQPIGPDLLWYQQKPGKAPKLLIYQTSILRSGVPSRFSGSGSETDFTLTISNLQPEDFAKYYCQQYWAFPVTFGQGTKVVIKR", "=", 0.02],
  ["BMS2h-719-12 (other) VH: EVQLLESGGGLVQPGGSLRLSCAASGFTFKRYEMMWVRQAPGKGLEWVSSISSDGSFTYYADSVKGRFTVSRDNSKNTLYLQMNSLRAEDTAVYYCADPFTEFDYWGQGTLVTVSS", "=", 0.358],
  ["BMS2h-783 (other) VH: EVQLLESGGGLVQPGGSLRLSCAASGFTFRDYDMGWVRQAPGKGLEWVSTISPLGHFTYYADSVKGRFTISRDNSKNTLYLQMNSLRAEDTAVYYCAKSGFHEYTEGFDYWGQGTLVTVSS", ">", 2],
  ["BMS2h-116-1314 (other) VL: DIQMTQSPSSLSASVGDRVTITCRASQPIGPDLLWYRQKPGKAPKLLIYQTSILRSGVPSRFSGSGSETDFTLTISNLQPEDFATYYCQQYWAFPVTFGQGTKVVIKR", "=", 0.041],
  ["BMS2h-745-9 (other) VH: EVQLLESGGGSVQPGGSLRLSCAASGFTFDNTEMAWVRQAPGKGLEWVSGITEDGNRTYYADSVKGRFTISRDNSKNTLYLQMNSLRAEDTAVYYCAKIRNLHWDVGRQFVYWGQGTLVTVSS", ">", 7],
  ["BMS2h-758-5 (other) VH: EVQLLESGGGLVQPGGSLRLSCAASGFAFGDYGMNWVRQAPGKGLEWVSHISSNGRFTYYADSVKGRFTISRDNSKNTLYLQMNSLRAEDTAVYYCAETSGYFEYWGQGTLVTVSS", ">", 7],
  ["BMS2h-572-631 (other) VH: EVQLLESGGGLVQPGGSLRLSCAASGFTFKWQLMGWVRQAPGKGLEWVSGIEGPGDVTYYADSVKGRFTISRDNSKNTLYLQMNSLRAEDTAVYYCVKVGKDSRSDYRGQGTLVTVSS", "=", 0.108],
  ["BMS2h-492-3 (other) VL: DIQMTQSPSSLSATVGDRVTITCRASQAIETNLEWYQQKPGKAPKLLIYDASMLQSGVPSRFSGSGSGTDFTLTISSLQPEDFATYYCQQYDAYPPTFGQGTKVEIKR", "=", 1.1],
  ["BMS2h-707 (other) VH: EVQLLESGGGLVQPGGSLRLSCAASGFTFETYRMSWVRQAPGKGLEWVSAIDQEGSATYYADSVKGRFTISRDNSKNTLYLQMNSLRAEDTAVYYCAKNSGTRPGLRFDYWGQGTLVTVSS", ">", 7]
]}
